A collection of molecules and their measured oocyst in % of inf. control tot.
Tested on: Eimeria acervulina, Eimeria maxima and Eimeria tenella
assayProtocol: Cage experiments coccidiosis/chicks, mixed experimental infection
Format: in vivo, chicken chicks
conditionContext: 10 ppm in feed
Your answer should be a plain number; it is taken to be in %.

Worked examples, 3 molecules total:
1) Cc1oc(=O)oc1Cn1c(C(F)(F)F)nc2c(Br)cc3c(c21)OC(F)(F)C(F)(F)O3 [Example 14]
4
2) Cc1oc(=O)oc1Cn1c(C(F)(F)F)nc2cc(C(F)(F)F)c(C(F)(F)F)cc21 [Example 13]
0
3) Cc1oc(=O)oc1Cn1c(C(F)(F)F)nc2c(Cl)cc3c(c21)OC(F)(F)C(F)(F)O3 [Example 15]
0

In: # lookup: oocyst in % of inf. control tot. of Cc1oc(=O)oc1Cn1c(C(F)(F)F)nc2cc(C(F)(F)F)c(Cl)cc21 [Example 19]
Out: 5

In: # lookup: oocyst in % of inf. control tot. of Cc1oc(=O)oc1Cn1c(C(F)(F)F)nc2c(C(F)(F)F)cc(C(F)(F)F)cc21 [Example 28]
Out: 0

---

Test system: Eimeria maxima
assayProtocol: Cage experiments coccidiosis/chicks, Eimeria maxima part of the mixed infection; also: key: 2 = complete action; 1 = weak action; 0 = inactive; D = death
Format: in vivo, chicken chicks
conditionContext: Dose 10 ppm; second symbol of cell
property: Efficacy against Eimeria maxima (grade)

1. Cc1oc(=O)oc1Cn1c(C(F)(F)F)nc2c(Cl)cc3c(c21)OC(F)(F)C(F)(F)O3
1
2. Cc1oc(=O)oc1Cn1c(C(F)(F)F)nc2cc(Cl)c(C(F)(F)F)cc21
0

Now take the following molecule into account.
In: # lookup: Efficacy against Eimeria maxima (grade) of `Cc1oc(=O)oc1Cn1c(C(F)(F)F)nc2cc(C(F)(F)F)c(Cl)cc21`
Out: 1

---

System: Eimeria tenella
assayProtocol: Cage experiments coccidiosis/chicks, Eimeria tenella part of the mixed infection
Assay type: in vivo, chicken chicks
conditionContext: 5 ppm in feed
A collection of compounds and their measured oocyst in % of inf. control ten.

1) Cc1oc(=O)oc1Cn1c(C(F)(F)F)nc2c(Cl)cc(C(F)(F)F)cc21
>100%

In: Find the measured oocyst in % of inf. control ten.: item `Cc1oc(=O)oc1Cn1c(C(F)(F)F)nc2cc(C(F)(F)F)c(Cl)cc21` , target or system Eimeria tenella.
Out: >100%

In: Find the measured oocyst in % of inf. control ten.: item `Cc1oc(=O)oc1Cn1c(C(F)(F)F)nc2cc(Cl)c(C(F)(F)F)cc21` , target or system Eimeria tenella.
Out: >100%
